- Assayed system: P. falciparum apicoplast DNA polymerase (Pf-apPOL) (Plasmodium falciparum)
- Measurement description: Fluorescence-based high-throughput DNA polymerase assay (molecular beacon), primary screen and dose-response
- Format: biochemical
- Test settings: DRC-2; 180'; concentration 80
Overview of reported % inhibition apPOL 180' across a group of compounds:
I only need the number, in %, no unit after it.

// solved cases for % inhibition apPOL 180' follow
O=C(CSc1nnc(-c2ccco2)[nH]1)c1ccc(Cl)cc1
-45
COc1ccc(-c2c(C(F)(F)F)nn3c(=O)cc(-c4cccc([N+](=O)[O-])c4)[nH]c23)cc1
85
COc1ccc(S(=O)(=O)/N=C2\NC(=O)/C(=C3\C(=O)Nc4ccc([N+](=O)[O-])cc43)S2)cc1
88
CCOC(=O)C1=C2c3cc(OC)c(OC)cc3CC(C)(C)N2C(=O)C1=O
66
Cc1ccc(CCNC(=O)c2cnn3c(O)c(Cc4ccccc4F)c(C)nc23)cc1
69
CN(C)S(=O)(=O)Oc1ccc(-c2noc(-c3ccc(Oc4cc(Cl)cc(Cl)c4)o3)n2)cc1
76

I am curious: what % inhibition apPOL 180' value has been reported for O=C1Nc2ccc(I)cc2C1=Cc1cc(Br)c(O)c(Br)c1 ?
76

Again, but for Cc1ccccc1NC(=O)Cn1ccc2c(=O)[nH]ccc21 [Molecule 50, O=C(Cn1ccc2c1cc[nH]c2=O)Nc1ccc(cc1)C]
78

----------
- Assayed system: P. falciparum apicoplast DNA polymerase (Pf-apPOL) (Plasmodium falciparum)
- Measurement description: Fluorescence-based high-throughput DNA polymerase assay (molecular beacon), primary screen and dose-response
- Type: biochemical
- Test settings: DRC-2; 90'; conc 5
# reported % inhibition ApPOL 90'; entries follow
Give the number; % is assumed, so skip it.

Cc1ccccc1NC(=O)Cn1ccc2c(=O)[nH]ccc21 [Molecule 50, O=C(Cn1ccc2c1cc[nH]c2=O)Nc1ccc(cc1)C]
13
C=CC1=C(C)c2cc3[nH]c(cc4nc(cc5[nH]c(cc1n2)c(C)c5CCC(=O)O)C(CCC(=O)O)=C4C)c(C)c3C=C [Molecule 91]
56
C=CCOc1c(Br)cc(Br)cc1/C=C1\SC(=N)NC1=O [KU0051640]
6.55
Cc1cccc(NC(=O)Cn2ccc3c(=O)[nH]ccc32)c1C [Molecule 11, O=C(Cn1ccc2c1cc[nH]c2=O)Nc1cccc(c1C)C]
24
O=C1NN(c2ccc(Cl)c(Cl)c2)C(=O)/C1=C/c1ccc(-c2ccc3c(c2)C(=O)OC3)o1 [Molecule 90]
9
Cc1ccc(CNC(=O)c2cnn3c(O)cc(CSc4ccc(Cl)cc4)nc23)cc1 [Molecule 99]
49
Cc1cccc(C2=N/C(=C\c3ccc([N+](=O)[O-])o3)C(=O)O2)c1 [KU0058960]
19
COC(=O)c1sc(-c2ccc(C(C)(C)C)cc2)cc1NC(=O)CCC(=O)O [Molecule 87]
7
Cc1ccc(N2NC(=O)/C(=C\c3ccc(O)c([N+](=O)[O-])c3)C2=O)cc1Cl [KU0058427]
19
CCOc1nc2cccc(C(=O)OC(C)OC(=O)OC3CCCCC3)c2n1Cc1ccc(-c2ccccc2-c2nnn[nH]2)cc1 (stereo not drawn) [Molecule 94]
19

Consider now this further compound.
Returns the measured % inhibition ApPOL 90' for the input compound. Input: O=C(O)c1ccc(COc2cc([N+](=O)[O-])cc3cccnc23)cc1 [KU0058403]
12

----------
- Assayed system: P. falciparum apicoplast DNA polymerase (Pf-apPOL) (Plasmodium falciparum)
- Measurement description: Fluorescence-based high-throughput DNA polymerase assay (molecular beacon), primary screen and dose-response
- Assay type: biochemical
- Test settings: DRC-2; 5'; conc 10
Readout kind: % inhibition Apo pol 5' (%)
Output spec: scalar in %, unitless text.

In the examples that follow, each entry is paired with its recorded % inhibition Apo pol 5'.
N#CC(C#N)=C1SCN(c2cccc(Cl)c2)CS1 [Molecule 29, N#CC(=C1SCN(CS1)c1cccc(c1)Cl)C#N]
45
O=c1nc(/C=C/c2ccc(Br)cc2)oc2ccccc12 [KU0052629]
6
CC(C)CCNC(=O)c1cnn2c(O)cc(CSc3ccc(Cl)cc3)nc12 [Molecule 101]
55
Cc1ccccc1NC(=O)Cn1ccc2c(=O)[nH]ccc21 [Molecule 50, O=C(Cn1ccc2c1cc[nH]c2=O)Nc1ccc(cc1)C]
39
O=C(O)c1ccc(COc2cc([N+](=O)[O-])cc3cccnc23)cc1 [KU0058403]
31

Using the record for Cc1cccc(NC(=O)Cn2ccc3c(=O)[nH]ccc32)c1C [Molecule 11, O=C(Cn1ccc2c1cc[nH]c2=O)Nc1cccc(c1C)C] , report its % inhibition Apo pol 5'.
46

Do the same for COC(=O)c1sc(-c2ccc(C(C)(C)C)cc2)cc1NC(=O)CCC(=O)O [Molecule 87] please
35

Let us now turn to C=CC1=C(C)c2cc3[nH]c(cc4nc(cc5[nH]c(cc1n2)c(C)c5CCC(=O)O)C(CCC(=O)O)=C4C)c(C)c3C=C [Molecule 91]
53

What about this molecule? O=C1NN(c2ccc(Cl)c(Cl)c2)C(=O)/C1=C/c1ccc(-c2ccc3c(c2)C(=O)OC3)o1 [Molecule 90]
34

----------
- Assayed system: P. falciparum apicoplast DNA polymerase (Pf-apPOL) (Plasmodium falciparum)
- Measurement description: Fluorescence-based high-throughput DNA polymerase assay (molecular beacon), primary screen and dose-response
- Assay type: biochemical
- Test settings: DRC-1; 10'; concentration 5
- Description: The HT assay employs a molecular beacon, a stem-loop DNA template with a Cy3 dye and the Black Hole Quencher on the 3′ and 5′ ends of the DNA, respectively. Pf-apPOL concentration is based on a calculated absorptivity of ε280 = 56750 M^−1 cm^−1. […] To identify apPOL inhibitors we utilised our previously developed high-throughput DNA polymerase assay. […] The assay accurately recapitulates the kinetic behaviour of apPOL, as measured through more conventional low-throughput gel-based assays. […]
Readout kind: % inhibition Apo pol 10' (%)
Use % as the unit, but write only the number.

Would you please look over these solved cases?
CN(C)C=CC(=O)c1ccccn1
16.5803
NC(=O)c1cc[n+](CC2=C(C(=O)[O-])N3C(=O)[C@@H](NC(=O)[C@@H](c4ccccc4)S(=O)(=O)[O-])[C@H]3SC2)cc1.[Na+]
54.1804
CCOc1ccc(/C=C2\N=C(c3cc([N+](=O)[O-])cc([N+](=O)[O-])c3)OC2=O)cc1
55.2757
N#Cc1c(C2CCCCC2)nc(Sc2ccc(C(F)(F)F)cc2[N+](=O)[O-])[nH]c1=O
22.3075
COc1ccc(CNC(=O)Cn2nc3c(c2NC(=O)Cc2cccs2)CSC3)cc1
13.7887

Returns the measured % inhibition Apo pol 10' for the input molecule. Input: CCCCOC(=O)CCCCCN1C(=O)C(=Cc2ccc(OC)cc2)SC1=S
1.705

Then this molecule: Cc1cc(C)c2c(O)nc(SCC(=O)c3ccc(O)c(O)c3)nc2n1
84.19

How about O=c1cc(-c2ccccc2)oc2c(O)c(O)ccc12 ?
19.657

Continue with Cl.NC(CO)C(=O)NNCc1ccc(O)c(O)c1O (stereo not shown)
2.015

Also, CO/N=C(\C(=O)N[C@@H]1C(=O)N2C(C(=O)[O-])=C(CSc3nc(=O)c([O-])nn3C)CSC12)c1csc(N)n1.[Na+].[Na+] (stereo partly shown) please.
26.0446

Then what about the molecule O=C(c1c[nH]c2ncccc12)N1CCCCCC1 [Molecule 51, O=C(c1c[nH]c2c1cccn2)N1CCCCCC1] ?
3.05

And CC(=O)c1cc2c(N)c(/C(N)=N/C#N)sc2nc1C ?
12.7693

Same question for CSC(C)C(=O)C=CN(C)C (stereo not shown) please.
9.272

Please do the same for Cc1cccc2c(C(=O)NC(C)C)cc(N(C)C)nc12 as well.
4.255

Same read-out for Cn1nc(C(=O)N2CCc3c(nc4cc(-c5ccccc5)[nH]n4c3=O)C2)c2ccccc21 ?
28

Another molecule to look at: COc1ccccc1CCC(=O)N1CCc2c(nc3cc(-c4ccccc4)[nH]n3c2=O)C1
18

----------
- Assayed system: P. falciparum apicoplast DNA polymerase (Pf-apPOL) (Plasmodium falciparum, UniProt Q8ILY1)
- Sequence (Q8ILY1 entry or part of it): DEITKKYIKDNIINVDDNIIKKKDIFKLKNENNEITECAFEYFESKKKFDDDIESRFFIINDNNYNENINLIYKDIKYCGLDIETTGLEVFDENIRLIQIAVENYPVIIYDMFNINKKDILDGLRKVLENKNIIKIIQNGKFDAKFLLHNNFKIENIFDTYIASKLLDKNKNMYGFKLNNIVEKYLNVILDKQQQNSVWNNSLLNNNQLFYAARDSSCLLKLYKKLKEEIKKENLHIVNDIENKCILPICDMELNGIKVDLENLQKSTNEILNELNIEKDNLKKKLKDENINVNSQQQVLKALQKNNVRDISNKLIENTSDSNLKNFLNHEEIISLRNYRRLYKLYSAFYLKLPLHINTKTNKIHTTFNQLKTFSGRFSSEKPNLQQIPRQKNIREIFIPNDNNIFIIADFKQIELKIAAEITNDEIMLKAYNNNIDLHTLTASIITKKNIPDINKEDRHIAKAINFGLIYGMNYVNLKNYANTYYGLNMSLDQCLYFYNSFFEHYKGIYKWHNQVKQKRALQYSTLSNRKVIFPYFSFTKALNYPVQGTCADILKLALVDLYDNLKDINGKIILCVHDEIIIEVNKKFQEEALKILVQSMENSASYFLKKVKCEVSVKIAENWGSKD
- Measurement description: Fluorescence-based high-throughput DNA polymerase assay (molecular beacon), primary screen and dose-response;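 on % inhibition apPOL 180': test concentration in µM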
- Assay type: biochemical
- Test settings: DRC-1; concentration 20; 180'
Readout kind: % inhibition apPOL 180' (%)
Quick reminder: number only, in %, skip the unit.

COc1cc(/C=C2\C(=O)N(c3ccc(C(=O)O)cc3)N=C2C(F)(F)F)ccc1OCC(C)C
50.844
CCc1ccccc1NC(=O)c1ccc(-c2ncccc2NC(C)=O)cc1
25.9288
O=C(Cn1ccc2c(=O)[nH]ccc21)Nc1ccccc1Cl [Molecule 19, O=C(Cn1ccc2c1cc[nH]c2=O)Nc1ccccc1Cl]
88.4548
Cc1ccc(C2=N/C(=C\c3ccc(I)o3)C(=O)O2)cc1[N+](=O)[O-]
43.2832
O=C1c2ccccc2C(=O)c2c1oc1c3c(ccc21)OCN(C1CCCC1)C3
74.7554
COc1ccc(NC(=O)Cn2nc3c(cc2=O)CCC3)cc1Cl
86
Oc1cccnc1/N=C/c1cc(I)cc(I)c1O
62.032

I'd like to know its % inhibition apPOL 180'. The compound in question is Cc1cc(C)nc(Nc2nc(CC(=O)Nc3nc(-c4ccco4)cs3)cs2)n1
60.6937
